tested on: VDR homodimer (NR concentration 270 nM); test: PBM binding z-score (relative to random genomic background probes); higher = stronger binding; sequences stand for … in GC…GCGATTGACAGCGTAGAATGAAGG
# key: entry, value: PBM binding z-score
Answer using only a numeral; do not append any unit.

{"biopolymerSequence": "CAAACTAGGTCACCAAAGGTCAAAGTCGAATGAC", "systemName": "VDR homodimer (NR concentration 270 nM)", "PBM binding z-score": 3.85}
{"biopolymerSequence": "CCTATTAGGTGACCATAAGGGCAACCGAAGCTCG", "systemName": "VDR homodimer (NR concentration 270 nM)", "PBM binding z-score": 0.127}
{"biopolymerSequence": "GCTCGGACGACAAGGTCAGAGCTTTGTCCGTAGA", "systemName": "VDR homodimer (NR concentration 270 nM)", "PBM binding z-score": 0.617}

Enquiry: # assay system VDR homodimer (NR concentration 270 nM): give PBM binding z-score of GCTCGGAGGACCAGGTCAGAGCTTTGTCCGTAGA
Return: -0.425

Enquiry: Write PBM binding z-score of CCGACTGGGGCATAAGGTTAACATAAGCCAGCCC ; system used: VDR homodimer (NR concentration 270 nM)
Return: -0.243

Enquiry: Name the value of PBM binding z-score reported for TAGTCTAGGTCATGCGGGCCAGTATAGTGTCGGC when tested on VDR homodimer (NR concentration 270 nM).
Return: 0.86

###

test system: PXR:RXRa (NR concentration 270 nM, RXRa partner concentration 90 nM); experiment: PBM binding z-score (relative to random genomic background probes); higher = stronger binding; sequences stand for … in GC…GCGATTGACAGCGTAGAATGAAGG
The following sequences are shown together with reported PBM binding z-score values.

Reference set, count: 3
{"biopolymerSequence": "CGTCCAAGGTCAGAAAGGTCAGTGAATGCCGAGT", "propertyLabel": "PBM binding z-score", "measured": 6.06}
{"biopolymerSequence": "CCAGACAGGTGAAAGCTAACTCAGTCTGGTACGC", "propertyLabel": "PBM binding z-score", "measured": -0.352}
{"biopolymerSequence": "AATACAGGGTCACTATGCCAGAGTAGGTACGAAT", "propertyLabel": "PBM binding z-score", "measured": 2.9}

Enquiry: Provide the reported PBM binding z-score (system: PXR:RXRa (NR concentration 270 nM, RXRa partner concentration 90 nM)) for ACTAGCAGACCAAGTTTGGGTCACTCAAACAAAG
Return: 0.6

Enquiry: Please tell me the measured PBM binding z-score for TCTAGTTGGTCACGGAGGTGACACACGACGGGTA ; system: PXR:RXRa (NR concentration 270 nM, RXRa partner concentration 90 nM).
Return: 0.71

Enquiry: Under PXR:RXRa (NR concentration 270 nM, RXRa partner concentration 90 nM): report PBM binding z-score of CCTACTGGGGCATCAGGTCATTGATATCAACGTT .
Return: 1.8

Enquiry: # return PBM binding z-score of CCTAGCAGGCCGGGGTCACTCAAGCATTTCGCTT (system: PXR:RXRa (NR concentration 270 nM, RXRa partner concentration 90 nM))
Return: 5.35

Enquiry: With PXR:RXRa (NR concentration 270 nM, RXRa partner concentration 90 nM) as the test system, provide measured PBM binding z-score for this sequence: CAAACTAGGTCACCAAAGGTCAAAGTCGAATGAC
Return: 6.88

Enquiry: Quote PXR:RXRa (NR concentration 270 nM, RXRa partner concentration 90 nM) PBM binding z-score for entry CGTCAAGGTTCAAGGTAACGTAACAGAAAGCAGC .
Return: 1.87

Enquiry: For PXR:RXRa (NR concentration 270 nM, RXRa partner concentration 90 nM), give the measured PBM binding z-score of the entry TAATATAGGTAAACAGGTGAAAGTCCGTAAGTTA
Return: 0.69

Enquiry: Would you please give the reported PBM binding z-score of CCAGACAGGTGAAGGGTAACTCAGTCTGGTACGC with PXR:RXRa (NR concentration 270 nM, RXRa partner concentration 90 nM)?
Return: -0.0608

Enquiry: Give PBM binding z-score only, for ATCTTTAGGTAAAAGTTCAGTGAATCCCGAGGAT , using PXR:RXRa (NR concentration 270 nM, RXRa partner concentration 90 nM) data.
Return: 2.07
